- test: Oral bioavailability in Beagle dog at 1 umol/kg
- Assay type: ADME, organism-based, Canis lupus familiaris
- stated-conditions: in vivo
measured-endpoint: bioavailability (%)
Numbers only, in %.

Entry CNC(=O)c1nc(-c2nc(-c3cnc4ccccn34)c(C)nc2N)n(C)n1 — recorded bioavailability = 60
